molecular target: EPHB1 (UniProt P54762); assay: phosphorylation enrichment, bacterial display (enrichment ratio); higher = better substrate or ligand; peptides without Tyr show the background;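 further: 11-residue human phosphosite peptides and single-mutation variants displayed on the E. coli surface, counted by deep sequencing, each peptide's frequency after selection divided by its frequency in the unselected input library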;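 further: frequency after pTyr selection over input frequency; kinase dosed for 20-30% of maximal phosphorylation in three min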
Sequence (P54762 whole entry, looked up): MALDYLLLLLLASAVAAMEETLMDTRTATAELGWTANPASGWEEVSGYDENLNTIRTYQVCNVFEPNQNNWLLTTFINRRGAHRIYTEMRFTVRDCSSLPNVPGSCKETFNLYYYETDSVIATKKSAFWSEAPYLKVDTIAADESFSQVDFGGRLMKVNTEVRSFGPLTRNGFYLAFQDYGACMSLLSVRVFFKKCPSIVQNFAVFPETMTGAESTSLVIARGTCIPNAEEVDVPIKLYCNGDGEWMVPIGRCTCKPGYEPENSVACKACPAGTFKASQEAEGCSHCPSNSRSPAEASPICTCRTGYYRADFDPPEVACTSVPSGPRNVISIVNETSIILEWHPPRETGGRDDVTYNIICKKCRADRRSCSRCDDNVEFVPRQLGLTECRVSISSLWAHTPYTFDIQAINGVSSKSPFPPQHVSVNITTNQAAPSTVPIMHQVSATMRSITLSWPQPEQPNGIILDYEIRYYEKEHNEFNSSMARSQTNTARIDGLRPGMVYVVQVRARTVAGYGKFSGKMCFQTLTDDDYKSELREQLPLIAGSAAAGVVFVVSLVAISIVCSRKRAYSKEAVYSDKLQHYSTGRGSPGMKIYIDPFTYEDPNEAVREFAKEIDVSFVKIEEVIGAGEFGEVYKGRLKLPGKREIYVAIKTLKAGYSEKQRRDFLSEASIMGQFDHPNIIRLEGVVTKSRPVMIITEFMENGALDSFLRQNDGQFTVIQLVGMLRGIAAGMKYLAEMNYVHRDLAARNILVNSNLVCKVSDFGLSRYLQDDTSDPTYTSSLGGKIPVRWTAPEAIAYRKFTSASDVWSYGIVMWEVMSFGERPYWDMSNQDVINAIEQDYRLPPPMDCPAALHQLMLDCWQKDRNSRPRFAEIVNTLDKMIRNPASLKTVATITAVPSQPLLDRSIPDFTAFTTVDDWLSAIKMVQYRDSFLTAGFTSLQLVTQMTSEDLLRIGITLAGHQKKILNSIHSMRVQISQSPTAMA
metric-name: phosphorylation enrichment

[
  {
    "residues": "HKETGYVVERP [BCLAF1_Y466_L461H]",
    "metric-name": "phosphorylation enrichment",
    "test-result": 0.475
  },
  {
    "residues": "DTCPPYVLSQV [GJB4_Y237_G242V]",
    "metric-name": "phosphorylation enrichment",
    "test-result": 0.685
  },
  {
    "residues": "GTTIHYNYMCN [TP53_Y234_C229G]",
    "metric-name": "phosphorylation enrichment",
    "test-result": 0.834
  },
  {
    "residues": "SVTCTYSPALK [TP53_Y126_N131K]",
    "metric-name": "phosphorylation enrichment",
    "test-result": 0.407
  },
  {
    "residues": "SGPRRYTVAAL [TTR_Y125_I127V]",
    "metric-name": "phosphorylation enrichment",
    "test-result": 0.409
  },
  {
    "residues": "SHGQDYLVGNK [GSTA1_Y147]",
    "metric-name": "phosphorylation enrichment",
    "test-result": 0.402
  },
  {
    "residues": "MSSLPYMKVIF [SLC4A11_Y853_M856V]",
    "metric-name": "phosphorylation enrichment",
    "test-result": 0.482
  },
  {
    "residues": "MSFDRYMAVCH [OR2A5_Y123_I126V_YF]",
    "metric-name": "phosphorylation enrichment",
    "test-result": 0.858
  },
  {
    "residues": "QTLEAYIRCNK [SPAST_Y604_W607C]",
    "metric-name": "phosphorylation enrichment",
    "test-result": 0.906
  },
  {
    "residues": "SDVCMYRKNTF [SYNE2_Y570_I574T_YF]",
    "metric-name": "phosphorylation enrichment",
    "test-result": 0.551
  },
  {
    "residues": "GADAIYDHINE [UQCR10_Y44]",
    "metric-name": "phosphorylation enrichment",
    "test-result": 0.91
  },
  {
    "residues": "RFLRGYRQYAY [HLA-A_Y137_D140Y]",
    "metric-name": "phosphorylation enrichment",
    "test-result": 1.33
  },
  {
    "residues": "ELETLYKKAVK [CC2D2A_Y381]",
    "metric-name": "phosphorylation enrichment",
    "test-result": 0.526
  },
  {
    "residues": "PELIDYGKLRK [ACTN1_Y193]",
    "metric-name": "phosphorylation enrichment",
    "test-result": 0.441
  },
  {
    "residues": "FGLDRYQCDCT [PTGS1_Y54]",
    "metric-name": "phosphorylation enrichment",
    "test-result": 0.625
  },
  {
    "residues": "RRERDYTNLPS [CSF1R_Y923]",
    "metric-name": "phosphorylation enrichment",
    "test-result": 0.447
  },
  {
    "residues": "LYDPDFMKVIL [CYP4A22_Y104_Y104F]",
    "metric-name": "phosphorylation enrichment",
    "test-result": 0.772
  }
]
